measured target: HLA-A*02:01 (Homo sapiens, UniProt P04439, D140Y/D185E/D98H/E176V/E277Q/G131W/G231S/I119V/I121R/I166T/I218V/L300P/L318F/N151K/N90K/P208A/P217A/Q86G/Q94H/R138H/R169H/T345S)
assay comment: HLA-peptide competition binding assay, A*02:01
test context: post-translationally modified insulin peptide; competition binding assay; a dash indicates IC50 >40,000 nM; read-out: A*02:01 binding (IC50 nM) Modified
*1 amine or outer side, *2 acyl side, *3 side chain or, on linkers, in order; H or OH if unused. Where a SMILES comes first, the peptide text is derived from it. [ ]: non-standard residue; d: D form. γGlu = O=C(O)[C@H](CCC(=O)[*:2])N[*:1]; βAsp = O=C(O)[C@H](CC(=O)[*:2])N[*:1]; Cya = N[C@@H](CS(=O)(=O)O)C(=O)O; Cit = NC(=O)NCCC[C@H](N)C(=O)O
# Lookup of reported IC50 keyed by entry

CC(C)[C@H](N)C(=O)N[C@@H](CS(=O)(=O)O)C(=O)NCC(=O)N[C@@H](CCC(=O)O)C(=O)N[C@@H](CCCNC(=N)N)C(=O)NCC(=O)N[C@@H](Cc1ccc(O)cc1)C(=O)N[C@@H](Cc1ccc(O)cc1)C(=O)N[C@@H](Cc1ccc(O)cc1)C(=O)O [VBGERGYYY] (H-V[Cya]GERGYYY-OH; N-terminus and C-terminus assumed) | > 40000 nM
CC(C)C[C@H](NC(=O)[C@H](Cc1c[nH]cn1)NC(=O)[C@H](CO)NC(=O)CNC(=O)[C@H](CS)NC(=O)[C@H](CC(C)C)NC(=O)[C@H](Cc1c[nH]cn1)NC(=O)CC[C@H](NC(=O)C[C@H](N)C(=O)O)C(=O)O)C(=O)O [OZHLCGSHL] ({βAsp-γGlu}-HLCGSHL-OH; N-terminus and C-terminus assumed) | > 40000 nM
CC(C)C[C@H](NC(=O)[C@H](Cc1c[nH]cn1)NC(=O)[C@H](CCC(N)=O)NC(=O)[C@H](CC(N)=O)NC(=O)[C@@H](NC(=O)[C@@H](N)Cc1ccccc1)C(C)C)C(=O)N[C@@H](CS(=O)(=O)O)C(=O)NCC(=O)N[C@@H](CO)C(=O)N[C@@H](Cc1c[nH]cn1)C(=O)O [FVNQHLBGSH] (H-FVNQHL[Cya]GSH-OH; N-terminus and C-terminus assumed) | > 40000 nM

We now examine a further compound.
Form: compound = CC(C)C[C@H](NC(=O)[C@H](CC(=O)O)NC(=O)[C@H](CCC(=O)O)NC(=O)[C@H](C)NC(=O)[C@H](CCC(=O)O)NC(=O)[C@H](CCCNC(N)=O)NC(=O)[C@H](CCCNC(N)=O)NC(=O)[C@@H](NC(=O)[C@H](CCCCN)NC(=O)[C@@H]1CCCN1)[C@@H](C)O)C(=O)O (H-PKT[Cit][Cit]EAEDL-OH; N-terminus and C-terminus assumed) ; IC50 = > 40000 nM

----------
Listed here: items and their measured IC50.
measured target: HLA-A*02:01 (Homo sapiens, UniProt P04439, D140Y/D185E/D98H/E176V/E277Q/G131W/G231S/I119V/I121R/I166T/I218V/L300P/L318F/N151K/N90K/P208A/P217A/Q86G/Q94H/R138H/R169H/T345S)
assay comment: HLA-peptide competition binding assay, A*02:01
test context: post-translationally modified insulin peptide; competition binding assay; a dash indicates IC50 >40,000 nM; read-out: A*02:01 binding (IC50 nM) Modified
Where a SMILES comes first, the peptide text is derived from it. [ ]: non-standard residue; d: D form. Cya = N[C@@H](CS(=O)(=O)O)C(=O)O; Cit = NC(=O)NCCC[C@H](N)C(=O)O

Here's what some known entries look like.
CC(C)C[C@H](N)C(=O)N[C@H](C(=O)N[C@@H](CS(=O)(=O)O)C(=O)NCC(=O)N[C@@H](CCC(=O)O)C(=O)N[C@@H](CCCNC(=N)N)C(=O)NCC(=O)N[C@@H](Cc1ccc(O)cc1)C(=O)N[C@@H](Cc1ccc(O)cc1)C(=O)N[C@@H](Cc1ccc(O)cc1)C(=O)O)C(C)C [LVBGERGYYY] (H-LV[Cya]GERGYYY-OH; N-terminus and C-terminus assumed) | > 40000 nM
CC(C)C[C@H](NC(=O)[C@H](CC(=O)O)NC(=O)[C@H](CCC(=O)O)NC(=O)[C@H](C)NC(=O)[C@H](CCC(=O)O)NC(=O)[C@H](CCCNC(N)=O)NC(=O)[C@H](CCCNC(N)=O)NC(=O)[C@@H](N)[C@@H](C)O)C(=O)N[C@@H](CCC(N)=O)C(=O)O (H-T[Cit][Cit]EAEDLQ-OH; N-terminus and C-terminus assumed) | > 40000 nM

--- query ---
Documented IC50 of CC(C)C[C@H](N)C(=O)N[C@H](C(=O)N[C@@H](CS)C(=O)NCC(=O)N[C@@H](CCC(=O)O)C(=O)N[C@@H](CCCNC(N)=O)C(=O)NCC(=O)N[C@@H](Cc1ccccc1)C(=O)N[C@@H](Cc1ccccc1)C(=O)N[C@@H](Cc1ccc(O)cc1)C(=O)O)C(C)C (H-LVCGE[Cit]GFFY-OH; N-terminus and C-terminus assumed) : > 40000 nM

----------
measured target: HLA-B*35:01 (Homo sapiens, UniProt P01889, A329T/A93T/A95T/C349S/D201E/D98Y/E176V/E187L/E204Q/E69T/I218V/K202T/L119I/Q94N/R155S/R180L/S121R/S35A/S48A/T118I/V127L/V306I/V36M/Y140S/Y91F)
assay comment: HLA-peptide competition binding assay, B*35:01
test context: read-out: IC50 nM, target assay B*35:01
Where no end group is shown, it is not given here.
parameter: IC50 (nM)
Quick reminder: number only, in nM, skip the unit.

The measured IC50 associated with LPLLALLAL [LPLLALLAL] reads 12300

----------
measured target: HLA-A*02:01 (Homo sapiens, UniProt P04439, D140Y/D185E/D98H/E176V/E277Q/G131W/G231S/I119V/I121R/I166T/I218V/L300P/L318F/N151K/N90K/P208A/P217A/Q86G/Q94H/R138H/R169H/T345S)
assay comment: HLA-peptide competition binding assay, A*02:01
test context: post-translationally modified insulin peptide; competition binding assay; a dash indicates IC50 >40,000 nM; read-out: A*02:01 binding (IC50 nM) Modified
Where a SMILES comes first, the peptide text is derived from it. [ ]: non-standard residue; d: D form. Cya = N[C@@H](CS(=O)(=O)O)C(=O)O; Cit = NC(=O)NCCC[C@H](N)C(=O)O
In this section, each of the compounds is paired with its reported IC50.

C[C@@H](O)[C@H](NC(=O)[C@H](Cc1ccc(O)cc1)NC(=O)[C@H](Cc1ccc(O)cc1)NC(=O)[C@H](Cc1ccc(O)cc1)NC(=O)CNC(=O)[C@H](CCCNC(=N)N)NC(=O)[C@H](CCC(=O)O)NC(=O)CNC(=O)[C@@H](N)CS(=O)(=O)O)C(=O)O [BGERGYYYT] (H-[Cya]GERGYYYT-OH; N-terminus and C-terminus assumed) | > 40000 nM

Next compound, IC50 to be filled in.
IC50 in this record for C[C@@H](O)[C@H](NC(=O)[C@H](Cc1ccc(O)cc1)NC(=O)[C@H](Cc1ccccc1)NC(=O)[C@H](Cc1ccccc1)NC(=O)CNC(=O)[C@H](CCCNC(N)=O)NC(=O)[C@H](CCC(=O)O)NC(=O)CNC(=O)[C@@H](N)CS)C(=O)N1CCC[C@H]1C(=O)O (H-CGE[Cit]GFFYTP-OH; N-terminus and C-terminus assumed) : > 40000 nM

----------
measured target: HLA-B*18:01 (Homo sapiens, UniProt P01889, A329T/A93T/A95T/C349S/D201E/D54G/D98Y/E176V/E187T/E204Q/E69T/K202T/Q94N/R155S/R180L/S121R/V306I/Y140S/Y195H/Y33H/Y91S)
assay comment: HLA-peptide competition binding assay, B*18:01
test context: read-out: IC50 nM, target assay B*18:01
Where no end group is shown, it is not given here.
parameter: IC50 (nM)
A number alone suffices; assume nM.

Just so you know, measured IC50 for VCGERGFFYT came out at 626

----------
measured target: HLA-A*02:01 (Homo sapiens, UniProt P04439, D140Y/D185E/D98H/E176V/E277Q/G131W/G231S/I119V/I121R/I166T/I218V/L300P/L318F/N151K/N90K/P208A/P217A/Q86G/Q94H/R138H/R169H/T345S)
assay comment: HLA-peptide competition binding assay, A*02:01
test context: read-out: A*02:01 binding (IC50 nM) Modified; post-translationally modified insulin peptide; competition binding assay; a dash indicates IC50 >40,000 nM
Where no end group is shown, it is not given here.
# IC50 per entry

GERGYYYTP | > 40000 nM

Lab note: measured IC50 of ERGYYYTPK was > 40000 nM
